Test system: H838
Test summary: CCK-8 cell viability assay
Type: cell-based, human
Condition label: 48 h treatment; mean ± S.E.M.; wild-type Ras
Metric: IC50 (µM)

- COC1=C(OC)C(O)C(C/C=C(\C)CC/C=C(\C)CCC=C(C)C)C(C)C1=O (stereo not shown): 2.96

###

Tested on: THP-1
Test summary: CCK-8 cell viability assay
Assay type: cell-based
Condition label: Homo sapiens, 48 h treatment, mean ± S.E.M., mutant Ras
Metric: IC50 (nM)

• COC1=C(OC)C(O)C(C/C=C(\C)CC/C=C(\C)CCC=C(C)C)C(C)C1=O (stereo not shown) = 2220
